# testedTarget: pERK1/2 (Thr202/Tyr204), NCI-1H358 (KRAS G12C) (Homo sapiens, UniProt P01116, G12C)
# Construct: pERK1/2 HTRF read-out
# Sequence (P01116 1-188 isoform P01116-2 G12C): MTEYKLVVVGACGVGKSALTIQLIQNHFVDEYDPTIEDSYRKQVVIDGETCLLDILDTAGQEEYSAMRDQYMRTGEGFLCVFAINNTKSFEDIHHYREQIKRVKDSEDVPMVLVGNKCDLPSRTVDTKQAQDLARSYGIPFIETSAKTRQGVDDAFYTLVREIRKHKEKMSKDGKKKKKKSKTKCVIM
# assayProtocol: Assay of intracellular pERK1/2 (Thr202/Tyr204) phosphorylation in NCI-H358 cells (KRAS G12C)
# Type: cell-based
# conditionNotes: pERK1/2, 2 days, read-out: NCI-H358 (KRAS G12C) IC50
pIC50: −log10 of the molar value.

- compound: "CNc1ncccc1C(C)N1CCOc2nc(-c3cc(N)c(F)c(C)c3C(F)(F)F)c(F)c3nc(OC[C@@]45CCCN4C[C@H](F)C5)nc1c23 (single isomer, unassigned) [Compound 264]"
  pIC50: 7.03
- compound: "CC(c1cccnc1N)N1CCOc2nc(-c3cc(O)cc(Cl)c3C3CC3)c(F)c3nc(OC[C@@H]4CC(F)(F)CN4C)nc1c23 (single isomer, unassigned) [Compound 55]"
  pIC50: 6.49
- compound: "CC(c1cccnc1N)N1CCOc2nc(-c3cccc4sc(N)nc34)c(F)c3nc(OC[C@@H]4CCN4CC(F)F)nc1c23 (stereo partly shown)"
  pIC50: 7.54
- compound: "[2H]C1([2H])Oc2nc(-c3cc(N)c(F)c(Cl)c3C(F)(F)F)c(F)c3nc(OC[C@@]45CCCN4C[C@H](F)C5)nc(c23)N(C(C)c2cccnc2N)C1([2H])[2H] (single isomer, unassigned) [Compound 206]"
  pIC50: 9.70
- compound: "[2H]C1([2H])CC[C@@]2(C([2H])([2H])Oc3nc4c5c(nc(-c6cc(N)c(F)c(C)c6C(F)(F)F)c(F)c5n3)OCCN4C(C)c3cccnc3N)C[C@@H](F)CN12 (stereo partly shown) [Compound 119]"
  pIC50: 9.52
- compound: "[2H][C@@]1(F)CN2CCC[C@@]2(COc2nc3c4c(nc(-c5cc(N)c(F)c(C)c5C(F)(F)F)c(F)c4n2)OCCN3C(C)c2cccnc2N)C1 (single isomer, unassigned)"
  pIC50: 9.15
- compound: "Cc1ccc2[nH]ncc2c1-c1nc2c3c(nc(OC[C@@]45CCCN4C[C@H](F)C5)nc3c1F)N(C(C)c1cccnc1N)[C@@H](C)CO2 (stereo partly shown)"
  pIC50: 9.00
- compound: "CC(c1cccnc1N)N1CCOc2nc(-c3cc(N)cc(F)c3C(F)(F)F)c(F)c3nc(OC[C@@]45CCCN4C[C@H](F)C5)nc1c23 (single isomer, unassigned) [Compound 89]"
  pIC50: 7.59
- compound: "CC(c1cccnc1N)N1c2nc(OC[C@@]34CCCN3C[C@H](F)C4)nc3c(F)c(-c4c5cccnc5cc5[nH]ncc45)nc(c23)OC[C@@H]1C (stereo partly shown)"
  pIC50: 8.10
- compound: "CC(c1cccnc1N)N1CCOc2nc(-c3cc(N)ccc3C(F)(F)F)c(F)c3nc(OC[C@@]45CCCN4C[C@H](F)C5)nc1c23 (single isomer, unassigned) [Compound 53]"
  pIC50: 7.06

====

# testedTarget: pERK1/2 (Thr202/Tyr204), PANC-1 (KRAS G121D) (Homo sapiens, UniProt P01116, G12D)
# Construct: pERK1/2 HTRF read-out
# Sequence (P01116 1-188 isoform P01116-2 G12D): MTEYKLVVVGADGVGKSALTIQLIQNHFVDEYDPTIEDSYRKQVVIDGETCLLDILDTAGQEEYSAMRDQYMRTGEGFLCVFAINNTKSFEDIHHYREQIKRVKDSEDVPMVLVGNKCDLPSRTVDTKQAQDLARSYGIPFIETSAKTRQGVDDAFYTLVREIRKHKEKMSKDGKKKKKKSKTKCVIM
# assayProtocol: Assay of intracellular pERK1/2 (Thr202/Tyr204) phosphorylation in PANC-1 cells (KRAS G12D)
# Assay type: cell-based
# conditionNotes: pERK1/2, 2 days, read-out: PANC-1 (KRAS G12D) IC50
# Text: Example 2: Assay of intracellular pERK1/2 (Thr202/Tyr204)phosphorylation 1. […] Fluorescence ratio=fluorescence value665 nm/fluorescence value615 nm Inhibition rate (%)=100−((fluorescence ratio of compound well−fluorescence ratio of negative control well)/(fluorescence ratio of positive control well−fluorescence ratio of negative control well))×100 […]
valueType: log10 of IC50 (log10 of the value in µM)

- compound: "CC(c1cccnc1N)N1c2nc(OC[C@@]34CCCN3C[C@H](F)C4)nc3c(F)c(-c4c5cn[nH]c5cc5ccc(F)c(F)c45)nc(c23)OC[C@@H]1C (stereo partly drawn)"
  testedTarget: "pERK1/2 (Thr202/Tyr204), PANC-1 (KRAS G121D) (Homo sapiens, UniProt P01116, G12D)"
  log10 of IC50: -3.40
- compound: "CC(c1cccnc1N)N1CCOc2nc(-c3c(C(F)(F)F)ccc4[nH]ncc34)c(F)c3nc(OC[C@@H]4CCN4CC(F)F)nc1c23 (stereo partly drawn)"
  testedTarget: "pERK1/2 (Thr202/Tyr204), PANC-1 (KRAS G121D) (Homo sapiens, UniProt P01116, G12D)"
  log10 of IC50: -0.23
- compound: "CC(c1cccnc1N)N1CCOc2nc(-c3cc(N)ccc3C(F)(F)F)c(F)c3nc(OC[C@@H]4CCCN4C)nc1c23 (stereo partly drawn)"
  testedTarget: "pERK1/2 (Thr202/Tyr204), PANC-1 (KRAS G121D) (Homo sapiens, UniProt P01116, G12D)"
  log10 of IC50: -0.54
- compound: "CC(c1cccnc1N)N1c2nc(OC[C@@]34CCCN3C[C@H](F)C4)nc3c(F)c(-c4cc(O)cc(Cl)c4C4CC4)nc(c23)OC[C@@H]1C (stereo partly drawn)"
  testedTarget: "pERK1/2 (Thr202/Tyr204), PANC-1 (KRAS G121D) (Homo sapiens, UniProt P01116, G12D)"
  log10 of IC50: -3.40
- compound: "Cc1cc(N)cc(-c2nc3c4c(nc(OC[C@@]56CCCN5C[C@H](F)C6)nc4c2F)N(C(C)c2cccnc2N)CCO3)c1C(F)(F)F (stereo partly drawn) [Compound 59]"
  testedTarget: "pERK1/2 (Thr202/Tyr204), PANC-1 (KRAS G121D) (Homo sapiens, UniProt P01116, G12D)"
  log10 of IC50: -2.70
- compound: "CC(c1cccnc1N)N1CCOc2nc(-c3cc(O)cc4ccc(F)c(F)c34)c(F)c3nc(OC[C@@H]4CC(F)(F)CN4C)nc1c23 (single isomer, unassigned) [Compound 51]"
  testedTarget: "pERK1/2 (Thr202/Tyr204), PANC-1 (KRAS G121D) (Homo sapiens, UniProt P01116, G12D)"
  log10 of IC50: -1.00
- compound: "CC(c1cccnc1N)N1c2nc(OC[C@@]34CCCN3C[C@H](F)C4)nc3cc(-c4c5ccccc5cc5[nH]ncc45)nc(c23)OC[C@@H]1C (stereo partly drawn)"
  testedTarget: "pERK1/2 (Thr202/Tyr204), PANC-1 (KRAS G121D) (Homo sapiens, UniProt P01116, G12D)"
  log10 of IC50: -2.22
- compound: "Cc1c(F)c(N)cc(-c2nc3c4c(nc(OC[C@@]56CCCN5C[C@H](F)C6)nc4c2F)N([C@H](C)c2cccnc2N)CCO3)c1C(F)(F)F (single isomer, unassigned)"
  testedTarget: "pERK1/2 (Thr202/Tyr204), PANC-1 (KRAS G121D) (Homo sapiens, UniProt P01116, G12D)"
  log10 of IC50: -3.05
- compound: "Cc1n[nH]c2cc3ccccc3c(-c3cc4nc(OC[C@@]56CCCN5C[C@H](F)C6)nc5c4c(n3)OC[C@H](C)N5C(C)c3cccnc3N)c12 (stereo partly drawn)"
  testedTarget: "pERK1/2 (Thr202/Tyr204), PANC-1 (KRAS G121D) (Homo sapiens, UniProt P01116, G12D)"
  log10 of IC50: -3.40
- compound: "CC(c1cccnc1N)N1CCOc2nc(-c3cc(O)cc(Cl)c3C3CC3)c(F)c3nc(OC[C@@]45CCCN4C[C@H](F)C5)nc1c23 (stereo partly drawn) [Compound 4]"
  testedTarget: "pERK1/2 (Thr202/Tyr204), PANC-1 (KRAS G121D) (Homo sapiens, UniProt P01116, G12D)"
  log10 of IC50: -2.00
- compound: "Cc1c(F)c(N)cc(-c2nc3c4c(nc(OC[C@@H]5C[C@@H](F)CN5C)nc4c2F)N(C(C)c2cccnc2N)[C@@H](C)CO3)c1C(F)(F)F (single isomer, unassigned) [Compound 278]"
  testedTarget: "pERK1/2 (Thr202/Tyr204), PANC-1 (KRAS G121D) (Homo sapiens, UniProt P01116, G12D)"
  log10 of IC50: -2.70
